System: Mycobacterium tuberculosis
Assay: Antimycobacterial activity against Mycobacterium tuberculosis
Type: functional
MIC50 values for the compounds below.
Hi! Could you send only the number? It should be in µM, unit omitted.

Previously resolved entries follow.
COMPOUND: CCCCCCc1ccc(Oc2ccccc2C#N)c(O)c1
SUBJECT_OF_TEST: Mycobacterium tuberculosis
RECORDED_VALUE: 8.4

COMPOUND: Cc1ccn(C(C)c2nnc(Nc3ccn(Cc4c(F)cccc4Cl)n3)s2)n1 (configuration not stated)
SUBJECT_OF_TEST: Mycobacterium tuberculosis
RECORDED_VALUE: 1

COMPOUND: O=c1[nH]c(CC2CCCCC2)cc(O)c1-c1ccccc1
SUBJECT_OF_TEST: Mycobacterium tuberculosis
RECORDED_VALUE: 0.31

COMPOUND: CCCCCCc1ccc(Oc2ccccc2Br)c(O)c1
SUBJECT_OF_TEST: Mycobacterium tuberculosis
RECORDED_VALUE: 8.8

COMPOUND: Oc1cc(CC2CCCCC2)ccc1Oc1ccc(Cl)cc1Cl
SUBJECT_OF_TEST: Mycobacterium tuberculosis
RECORDED_VALUE: 27

Indicate the recorded MIC50 value for this compound: `CCCCCCc1ccc(Oc2ccccc2[N+](=O)[O-])c(O)c1`
39.6

Indicate the recorded MIC50 value for this compound: `CCCCCCc1ccc(Oc2ccccc2Cl)c(O)c1`
5.1
